tested on: KB-3-1; assay: Cytotoxic Profiling of Annotated Libraries Using Quantitative High-Throughput Screening (AID 1296008); details: Five cell lines viability, CellTiter-Glo ATP luminescence, 48-72 h; further: nearly all actives have a fitted effect of over 60% in size
Records with an inconclusive call do not appear. Active and inactive are the calls of the source. The call rests on the fitted dose curve; in most records, active means well fitted inhibition curve with a large enough effect; inconclusive means small, poorly fitted or top-dose-only effect; inactive means flat fitted curve, though single readings scatter.
Outcome codes: active, inactive

>>> group_label("CC[C@]1(O)C[C@H]2CN(CCC3=c4ccccc4=N[C]3[C@@](C(=O)OC)(c3cc4c(cc3OC)N(C)[C@H]3[C@@](O)(C(N)=O)[C@H](O)[C@]5(CC)C=CCN6CC[C@]43[C@@H]65)C2)C1")
"active"
>>> group_label("CN(C)N=Nc1nc[nH]c1C(N)=O")
"active"
>>> group_label("CCC=CC[C@H]1C(=O)CC[C@@H]1CC(=O)OC")
"inactive"
>>> group_label("CCC[C@H](Nc1nc(-c2ccc(NC(=O)NCC)c(OC)c2)ncc1C)c1cccnc1")
"active"
>>> group_label("CCCCC(C)(C)[C@H](O)C=C[C@H]1[C@H](O)CC(=O)[C@H]1CC=CCCCC(=O)O")
"inactive"
>>> group_label("Cc1ccccc1C(C(=O)NC1CCCCC1)N(C(=O)CNc1ccc(C#N)cc1)c1cccc(F)c1 (configuration not stated)")
"inactive"
>>> group_label("CCN1CCC(n2cc(CNc3cc(Cl)c4ncc(C#N)c(Nc5ccc(F)c(Cl)c5)c4c3)nn2)CC1")
"active"
>>> group_label("Cc1cc2c(cc1C1(c3ccc(C(=O)O)cn3)CC1)C(C)(C)CCC2(C)C")
"inactive"
>>> group_label("O=C(c1ccc(C=Cc2n[nH]c3ccccc23)cc1)N1CCNCC1")
"active"
>>> group_label("COC(=O)Nc1ccc(-c2nc(N3CCOCC3)c3cnn(C4CCN(C(=O)OC)CC4)c3n2)cc1")
"active"
>>> group_label("O=C(NCCCCN1CCOCC1)c1cc2ccccc2o1")
"inactive"
>>> group_label("CC(C)CN(C[C@@H](O)[C@H](Cc1ccccc1)NC(=O)O[C@H]1CO[C@H]2OCC[C@H]21)S(=O)(=O)c1ccc(N)cc1")
"inactive"
>>> group_label("O=C(NC[C@H](O)CO)c1ccncc1Nc1ccc(I)cc1F")
"inactive"
>>> group_label("CCN1C[C@H](C)n2c(c(O)c3c(=O)n(Cc4ccc(F)c(Cl)c4)nc(C(=O)NC)c32)C1=O")
"inactive"
>>> group_label("COc1ccc(Cn2ccc3ccc(C(=O)NO)cc32)cc1")
"inactive"
>>> group_label("CCCCC[C@H](O)C=C[C@H]1[C@H](O)CC(=O)[C@H]1CC=CCCCC(=O)O")
"inactive"
>>> group_label("CC(C)CNc1ccnc(NCc2csc(-c3ccccc3)n2)n1")
"active"
>>> group_label("Cc1cc(C(C)Nc2ccccc2)c2nc(N3CCOCC3)cc(=O)n2c1 (configuration not stated)")
"inactive"
>>> group_label("NC(=O)c1ccc(N(C(N)=O)c2c(F)cccc2F)nc1-c1ccc(F)cc1F")
"inactive"
>>> group_label("CN[C@@H](C)[C@H]1[C@H](O)C[C@@]2(C)[C@@H]3CC[C@H]4C(C)(C)[C@@H](NC)CC[C@@]45C[C@@]35CC[C@]12C")
"inactive"
>>> group_label("CC(C)n1c(C=C[C@H](O)C[C@H](O)CC(=O)O)c(-c2ccc(F)cc2)c2ccccc21")
"active"
>>> group_label("COc1nccc(-c2c(-c3ccc(F)cc3)ncn2C2CCC(O)CC2)n1 (configuration not stated)")
"inactive"
>>> group_label("CCCCn1c(=O)n(Cc2ccccc2F)c(=O)c2[nH]c(Cc3ccc(NC(C)=O)cc3)nc21")
"inactive"
>>> group_label("Cc1cc(CS(=O)(=O)c2ccccc2)cc(OCc2ccc(CN3CCC[C@H]3CO)cc2)c1")
"active"
>>> group_label("COc1nccc(-c2c(-c3ccc(F)cc3)ncn2C2CCNCC2)n1")
"inactive"
>>> group_label("CC1C(=O)OC2C(O)C34C5CC(C(C)(C)C)C36C(OC(=O)C6O)OC4(C(=O)O5)C12O (configuration not stated)")
"inactive"
>>> group_label("C[C@@]1(c2cc(-c3cncnc3)c(F)cc2F)CCSC(N)=N1")
"inactive"

Origin of the recorded values: PubChem BioAssay (NCATS)
